Below, each entry is listed alongside its reported viscosity.
# details: 348.15 K; 96.7 kPa; Liquid; Capillary tube (Ostwald / Ubbelohde) method
The figure you give is taken to be in mPa·s; do not add the unit.

Example results:
CCCCCCn1cc[n+](C)c1.[Cl-] [1-hexyl-3-methylimidazolium chloride] ... 183.45
CN(C)C=O [dimethylformamide] ... 0.493
c1ccncc1 [pyridine] ... 0.507
CC(=O)N(C)C [N,N-dimethylethanamide] ... 0.541

Could you now consider this next compound?
Request the reported viscosity associated with C[S+](C)[O-] [dimethyl sulfoxide]
0.931

###

Below, each entry is listed alongside its reported mass density.
# details: 303.15 K; 96.7 kPa; Liquid; Vibrating tube method
The figure you give is taken to be in kg/m3; do not add the unit.

CN(C)C=O [dimethylformamide] ... 939.18
C[S+](C)[O-] [dimethyl sulfoxide] ... 1090.29
c1ccncc1 [pyridine] ... 973.09
CCCCCCn1cc[n+](C)c1.[Cl-] [1-hexyl-3-methylimidazolium chloride] ... 1036.07

Could you now consider this next compound?
Request the reported mass density associated with CC(=O)N(C)C [N,N-dimethylethanamide]
931.85

###

# details: 333.15 K; 96.7 kPa; Liquid; Capillary tube (Ostwald / Ubbelohde) method
result type: viscosity (mPa·s)
The figure you give is taken to be in mPa·s; do not add the unit.

CN(C)C=O [dimethylformamide] ... 0.562
CC(=O)N(C)C [N,N-dimethylethanamide] ... 0.627
CCCCCCn1cc[n+](C)c1.[Cl-] [1-hexyl-3-methylimidazolium chloride] ... 453.59
C[S+](C)[O-] [dimethyl sulfoxide] ... 1.127

Could you now consider this next molecule?
Request the reported viscosity associated with c1ccncc1
0.59

###

Below, each entry is listed alongside its reported mass density.
# details: 323.15 K; 96.7 kPa; Liquid; Vibrating tube method
The figure you give is taken to be in kg/m3; do not add the unit.

Example results:
C[S+](C)[O-] [dimethyl sulfoxide] ... 1070.32
CN(C)C=O [dimethylformamide] ... 920.07
CC(=O)N(C)C [N,N-dimethylethanamide] ... 913.44

Request the reported mass density associated with CCCCCCn1cc[n+](C)c1.[Cl-] [1-hexyl-3-methylimidazolium chloride]
1024.75

Request the reported mass density associated with c1ccncc1
952.9

###

# details: 328.15 K; 96.7 kPa; Liquid; Capillary tube (Ostwald / Ubbelohde) method
viscosity of 0.7 mPa·s or higher: true (1). Under 0.7 mPa·s: false (0).

Some solved entries appear below for comparison.
C[S+](C)[O-] [dimethyl sulfoxide] ... true (1)
CC(=O)N(C)C [N,N-dimethylethanamide] ... false (0)
CN(C)C=O [dimethylformamide] ... false (0)
CCCCCCn1cc[n+](C)c1.[Cl-] [1-hexyl-3-methylimidazolium chloride] ... true (1)

Let's switch to this compound now.
Has c1ccncc1 [pyridine] a recorded viscosity greater than or equal to 0.7 mPa·s?
false (0)

###

Below, each entry is listed alongside its reported mass density.
# details: 353.15 K; 96.7 kPa; Liquid; Vibrating tube method
The figure you give is taken to be in kg/m3; do not add the unit.

Request the reported mass density associated with c1ccncc1
922.12

###

# details: 338.15 K; 96.7 kPa; Liquid; Vibrating tube method
Below, each entry is listed alongside its reported mass density.
The figure you give is taken to be in kg/m3; do not add the unit.

CCCCCCn1cc[n+](C)c1.[Cl-] [1-hexyl-3-methylimidazolium chloride] ... 1016.38
CN(C)C=O [dimethylformamide] ... 905.6
c1ccncc1 ... 937.6
C[S+](C)[O-] [dimethyl sulfoxide] ... 1055.34

Could you now consider this next molecule?
Request the reported mass density associated with CC(=O)N(C)C [N,N-dimethylethanamide]
899.53

###

# details: 308.15 K; 96.7 kPa; Liquid; Vibrating tube method
Below, each entry is listed alongside its reported mass density.
The figure you give is taken to be in kg/m3; do not add the unit.

CCCCCCn1cc[n+](C)c1.[Cl-] [1-hexyl-3-methylimidazolium chloride] ... 1033.22
c1ccncc1 ... 968.06
C[S+](C)[O-] [dimethyl sulfoxide] ... 1085.28

Request the reported mass density associated with CC(=O)N(C)C [N,N-dimethylethanamide]
927.26

Request the reported mass density associated with CN(C)C=O [dimethylformamide]
934.41

###

Below, each entry is listed alongside its reported mass density.
# details: 333.15 K; 96.7 kPa; Liquid; Vibrating tube method
The figure you give is taken to be in kg/m3; do not add the unit.

Example results:
CC(=O)N(C)C [N,N-dimethylethanamide] ... 904.16
CCCCCCn1cc[n+](C)c1.[Cl-] [1-hexyl-3-methylimidazolium chloride] ... 1019.13
C[S+](C)[O-] [dimethyl sulfoxide] ... 1060.34

Request the reported mass density associated with c1ccncc1
942.72

Request the reported mass density associated with CN(C)C=O [dimethylformamide]
910.44

###

Below, each entry is listed alongside its reported mass density.
# details: 348.15 K; 96.7 kPa; Liquid; Vibrating tube method
The figure you give is taken to be in kg/m3; do not add the unit.

Example results:
CCCCCCn1cc[n+](C)c1.[Cl-] [1-hexyl-3-methylimidazolium chloride] ... 1010.91
CN(C)C=O [dimethylformamide] ... 895.87
c1ccncc1 ... 927.3
C[S+](C)[O-] [dimethyl sulfoxide] ... 1045.34

Could you now consider this next compound?
Request the reported mass density associated with CC(=O)N(C)C [N,N-dimethylethanamide]
890.19

###

# details: 343.15 K; 96.7 kPa; Liquid; Vibrating tube method
result type: mass density (kg/m3)
The figure you give is taken to be in kg/m3; do not add the unit.

Request the reported mass density associated with CCCCCCn1cc[n+](C)c1.[Cl-] [1-hexyl-3-methylimidazolium chloride]
1013.65

Request the reported mass density associated with c1ccncc1
932.46

Request the reported mass density associated with C[S+](C)[O-] [dimethyl sulfoxide]
1050.35

Request the reported mass density associated with CN(C)C=O [dimethylformamide]
900.74

Request the reported mass density associated with CC(=O)N(C)C [N,N-dimethylethanamide]
894.87

###

# details: 338.15 K; 96.7 kPa; Liquid; Capillary tube (Ostwald / Ubbelohde) method
viscosity of 1 mPa·s or higher: true (1). Under 1 mPa·s: false (0).

C[S+](C)[O-] [dimethyl sulfoxide] ... true (1)
c1ccncc1 ... false (0)
CCCCCCn1cc[n+](C)c1.[Cl-] [1-hexyl-3-methylimidazolium chloride] ... true (1)
CC(=O)N(C)C [N,N-dimethylethanamide] ... false (0)

Let's switch to this compound now.
Has CN(C)C=O [dimethylformamide] a recorded viscosity greater than or equal to 1 mPa·s?
false (0)

###

# details: 303.15 K; 96.7 kPa; Liquid; Capillary tube (Ostwald / Ubbelohde) method
result type: log10 of viscosity (log10 of the value in mPa·s)
Record value = log10 of viscosity given in mPa·s.

C[S+](C)[O-] [dimethyl sulfoxide] ... 0.26
CCCCCCn1cc[n+](C)c1.[Cl-] [1-hexyl-3-methylimidazolium chloride] ... 3.76
CN(C)C=O [dimethylformamide] ... -0.12

Request the reported log10 of viscosity associated with CC(=O)N(C)C [N,N-dimethylethanamide]
-0.05

Request the reported log10 of viscosity associated with c1ccncc1 [pyridine]
-0.07

###

Below, each entry is listed alongside its reported mass density.
# details: 328.15 K; 96.7 kPa; Liquid; Vibrating tube method
The figure you give is taken to be in kg/m3; do not add the unit.

c1ccncc1 ... 947.82

Request the reported mass density associated with CN(C)C=O [dimethylformamide]
915.26

Request the reported mass density associated with CC(=O)N(C)C [N,N-dimethylethanamide]
908.81

Request the reported mass density associated with CCCCCCn1cc[n+](C)c1.[Cl-] [1-hexyl-3-methylimidazolium chloride]
1021.92

Request the reported mass density associated with C[S+](C)[O-] [dimethyl sulfoxide]
1065.33

###

Below, each entry is listed alongside its reported mass density.
# details: 318.15 K; 96.7 kPa; Liquid; Vibrating tube method
The figure you give is taken to be in kg/m3; do not add the unit.

Example results:
c1ccncc1 [pyridine] ... 957.97
CC(=O)N(C)C [N,N-dimethylethanamide] ... 918.06
CCCCCCn1cc[n+](C)c1.[Cl-] [1-hexyl-3-methylimidazolium chloride] ... 1027.56
C[S+](C)[O-] [dimethyl sulfoxide] ... 1075.31

Could you now consider this next molecule?
Request the reported mass density associated with CN(C)C=O [dimethylformamide]
924.86

###

# details: 353.15 K; 96.7 kPa; Liquid; Vibrating tube method
Below, each entry is listed alongside its reported mass density.
The figure you give is taken to be in kg/m3; do not add the unit.

Example results:
CCCCCCn1cc[n+](C)c1.[Cl-] [1-hexyl-3-methylimidazolium chloride] ... 1008.18
C[S+](C)[O-] [dimethyl sulfoxide] ... 1040.33

Request the reported mass density associated with CN(C)C=O [dimethylformamide]
890.98

Request the reported mass density associated with CC(=O)N(C)C [N,N-dimethylethanamide]
885.51
